The reported measurements were obtained from patent US10039846B2.

# Assay Remarks: in vivo
# Test Settings: NODSCID IL2RKO, mouse, iv, 3.7 MBq, total radioactivity, % ID/g Left Kidney Average
Where a SMILES comes first, the peptide text is derived from it. [ ]: non-standard residue; d: D form. The star is where a group is joined. DOTA = O=C(O)CN1CCN(CC(=O)O)CCN(CC(=O)*)CCN(CC(=O)O)CC1; Hyp = O=C(O)[C@@H]1C[C@@H](O)CN1; Cha = N[C@@H](CC1CCCCC1)C(=O)O; PEG2 = NCCOCCOCCC(=O)O

Compound: CC(C)C[C@H](NC(=O)[C@@H]1CCCN1C(=O)[C@H](CO)NC(=O)[C@H](CC1CCCCC1)NC(=O)CNC(=O)[C@@H]1C[C@@H](O)CN1C(=O)[C@@H]1CCCN1C(=O)[C@H](CCCNC(=N)N)NC(=O)[C@H](CCCCN)NC(=O)CCOCCOCCNC(=O)CN1CCN(CC(=O)O)CCN(CC(=O)O)CCN(CC(=O)O)CC1)C(=O)O [Ga-68 Peptide 3, metal not drawn] ({DOTA-PEG2}-KRP[Hyp]G[Cha]SPL-OH)
tissue uptake at 1 h: 5.14 %ID/g

---

# Assay Remarks: in vivo
# Test Settings: NODSCID IL2RKO, mouse, iv, 3.7 MBq, total radioactivity, % ID/g LEFT Tumour (B1R) Average
Where a SMILES comes first, the peptide text is derived from it. [ ]: non-standard residue; d: D form. The star is where a group is joined. DOTA = O=C(O)CN1CCN(CC(=O)O)CCN(CC(=O)*)CCN(CC(=O)O)CC1; Hyp = O=C(O)[C@@H]1C[C@@H](O)CN1; Cha = N[C@@H](CC1CCCCC1)C(=O)O; PEG2 = NCCOCCOCCC(=O)O
Assay Metric: tissue uptake at 1 h (%ID/g)

Molecule: CC(C)C[C@H](NC(=O)[C@@H]1CCCN1C(=O)[C@H](CO)NC(=O)[C@H](CC1CCCCC1)NC(=O)CNC(=O)[C@@H]1C[C@@H](O)CN1C(=O)[C@@H]1CCCN1C(=O)[C@H](CCCNC(=N)N)NC(=O)[C@H](CCCCN)NC(=O)CCOCCOCCNC(=O)CN1CCN(CC(=O)O)CCN(CC(=O)O)CCN(CC(=O)O)CC1)C(=O)O [Ga-68 Peptide 3, metal not drawn] ({DOTA-PEG2}-KRP[Hyp]G[Cha]SPL-OH)
Result Value: 1.32

---

# Assay Remarks: in vivo
# Test Settings: NODSCID IL2RKO, mouse, iv, 3.7 MBq, total radioactivity, % ID/g Bone Average
Where a SMILES comes first, the peptide text is derived from it. [ ]: non-standard residue; d: D form. The star is where a group is joined. DOTA = O=C(O)CN1CCN(CC(=O)O)CCN(CC(=O)*)CCN(CC(=O)O)CC1; Hyp = O=C(O)[C@@H]1C[C@@H](O)CN1; Cha = N[C@@H](CC1CCCCC1)C(=O)O; PEG2 = NCCOCCOCCC(=O)O

Molecule: CC(C)C[C@H](NC(=O)[C@@H]1CCCN1C(=O)[C@H](CO)NC(=O)[C@H](CC1CCCCC1)NC(=O)CNC(=O)[C@@H]1C[C@@H](O)CN1C(=O)[C@@H]1CCCN1C(=O)[C@H](CCCNC(=N)N)NC(=O)[C@H](CCCCN)NC(=O)CCOCCOCCNC(=O)CN1CCN(CC(=O)O)CCN(CC(=O)O)CCN(CC(=O)O)CC1)C(=O)O [Ga-68 Peptide 3, metal not drawn] ({DOTA-PEG2}-KRP[Hyp]G[Cha]SPL-OH)
Value Units: %ID/g
tissue uptake at 1 h: 0.34
